Test system: HL-60
experiment-description: NCI tumour cell line growth inhibition, 48 h
The source made the active and inactive calls. Rule as the data show it: active = GI50 up to about 1.1 µM and inactive = higher. Where a SMILES comes first, the peptide text is derived from it. The star is where a group is joined. Boc = CC(C)(C)OC(=O)*
Allowed answers: active, inactive

Example cases with answers are listed next.
molecule: CSCCC(NC(=O)C(CC(C)C)NC(=O)C1CCCN1C(=O)C(Cc1ccccc1)NC(=O)C(Cc1ccccc1)NC(=O)C(CCC(=O)O)NC(=O)OC(C)(C)C)C(N)=O (stereo not given) (Boc-EFFPLM-NH2; configuration not given here)
assigned-category: inactive

molecule: CN1C(c2ccccc2)CC(=Nc2ccccc2)CC1c1ccccc1 (stereo not given)
assigned-category: inactive

molecule: N#CC(C#N)=C/C=C(\Sc1c(Cl)c(Cl)nc(Cl)c1Cl)c1ccc(Cl)cc1
assigned-category: inactive

molecule: CCOC(=O)c1cnc2oc3ccc(O)cc3c2c1C
assigned-category: inactive

molecule: CN(C)CCC(/C=C/c1ccccc1)=N\Nc1ccccc1
assigned-category: active

molecule: CC(C)c1cc2c(O)c(c1)Cc1cc(C(C)C)cc(c1O)Cc1cc(C(C)C)cc(c1O)Cc1cc(C(C)C)cc(c1O)Cc1cc(C(C)C)cc(c1O)Cc1cc(C(C)C)cc(c1O)C2
assigned-category: inactive

molecule: Cc1occc1C(=S)Nc1ccc(Cl)c(C(=O)OC(C(C)C)C(C)C)c1
assigned-category: inactive

molecule: Cc1nnc2n1N=C(c1cc(F)c(Cl)cc1Cl)/C(=C/c1ccc(Cl)cc1)S2
assigned-category: inactive

molecule: CCN(CC)CC(=O)N1CCc2c([nH]c3ccccc23)C1c1cccnc1 (stereo not given)
assigned-category: inactive

Outcome? CCOC(=O)N1c2c(c3ccccc3n2C(=O)OCC)C(=O)C(OC)N1C(=O)OCC (stereo not given) inactive

----------
Tested on: 786-0
experiment-description: NCI tumour cell line growth inhibition, 48 h
Active and inactive are the calls of the source. Cut-off read from the data, not from the text of the source: active = GI50 up to about 1.1 µM and inactive = higher.
quantity-measured: GI50

molecule: C/C(=N\Nc1nnc(S)n1N)c1c(O)cc(C)oc1=O
GI50: > 100 µM (inactive)
//
molecule: COc1ccc2c3c1OC1C34CCN(C)C(C2)C4=CC(I)C1(OC)OC (centres undefined)
GI50: 4.15 µM (inactive)

State its GI50 on 786-0: N#CC12CC(C=O)=C(N)C1(C#N)CC(C=O)=C2N (centres undefined) > 100 µM (inactive)

Now consider O=C1c2ccccc2C(=O)N1CCn1ccc(NC(c2ccccc2)(c2ccccc2)c2ccccc2)nc1=O and answer again. 32 µM (inactive)

Would you mind doing C=C[C@@H](OCOCC[Si](C)(C)C)[C@@H](CC)OC(CCCOC(=O)C(C)(C)C)OC (some centres undefined) as well? 25 µM (inactive)

----------
System: Hs-578T
experiment-description: NCI tumour cell line growth inhibition, 48 h
Calls of active or inactive are those of the source. Rule as the data show it: active = GI50 up to about 1.1 µM and inactive = higher.
// values below are reported GI50

Solved cases below.
compound: CCc1n[nH]c(=O)n1/N=C(\C)c1ccc([N+](=O)[O-])cc1
experimental-result: 92.3 µM (inactive)
--
compound: CCN(CC)CC(O)CNc1ccc(NCC(O)CCl)c2c1C(=O)c1ccccc1C2=O (stereo not given)
experimental-result: 11.6 µM (inactive)
--
compound: O=C1CNc2cc(N3CCN(c4cccc(C(F)(F)F)c4)CC3)ccc2N1
experimental-result: 42.1 µM (inactive)
--
compound: CCCCCCCCCCCCCCCCCCOCC(O)COP(=O)(O)OCC1OC(n2cc(F)c(=O)[nH]c2=O)CC1O (stereo not given)
experimental-result: 14.3 µM (inactive)

The record that follows has no GI50 shown yet.
Would you kindly share the measured GI50 for COc1ccc(N2C(=O)C3c4[nH]c5ccc([N+](=O)[O-])cc5c4C4CCC(C(C)(C)C)CC4C3C2=O)cc1 (stereo not given) ? 25.4 µM (inactive)

----------
Tested on: NCI/ADR-RES
experiment-description: NCI tumour cell line growth inhibition, 48 h
Activity calls are given as the source filed them. No stated cut-off is given here; in the data, active = GI50 up to about 1.1 µM and inactive = higher.
quantity-measured: GI50

Reference set (5 entries):
compound: NC1CC2C3CCC2C1C3=O (stereo not given)
GI50: > 100 µM (inactive)

compound: C=C[C@@H](OCOCC[Si](C)(C)C)[C@@H](CC)OC(CCCOC(=O)C(C)(C)C)OC (stereo not given in full)
GI50: 30.1 µM (inactive)

compound: CC1(C)OC(C(=O)Nc2cc3c4ccccc4ccc3c3ccccc23)C(C(=O)N2CCCCC2)O1 (stereo not given)
GI50: 2.08 µM (inactive)

compound: CC(C)(Cl)C(Cl)CC/C(CBr)=C(\Cl)CBr (stereo not given)
GI50: 2.77 µM (inactive)

compound: CC(=O)OCC1OC(OC2CC3C(C)(C)C(=O)CC[C@]3(C)C3CC[C@]45C[C@]4(CCC5[C@@H](C)CC(O)C(O)C(C)(C)O)[C@]23C)C(O)C(O)C1O (stereo not given in full)
GI50: 18.3 µM (inactive)

What GI50 appears in the records for this compound with NCI/ADR-RES? CC(=O)NC(C)c1ccc(/N=N/N2CCCC2)cc1 (stereo not given) > 100 µM (inactive)

Now try O=C(NC/C=C/CO)c1ccccc1 . > 100 µM (inactive)

Lookup COc1cc(-c2cc(=O)c3c(O)c(OC)c(OC)c(OC)c3o2)cc(OC)c1OC 7.29 µM (inactive)

# iterate: CC(O)(c1ccccc1)c1nccc2ccccc12 (stereo not given) 43.7 µM (inactive)

Again, but for Cc1cc(C2CC(O)C(CO)O2)c(F)cc1F (stereo not given) > 100 µM (inactive)

----------
System: NCI-H226
experiment-description: NCI tumour cell line growth inhibition, 48 h
Calls of active or inactive are those of the source. Rule as the data show it: active = GI50 up to about 1.1 µM and inactive = higher.
quantity-measured: GI50

Known results for compounds:
compound: Cc1cc(C)c(-c2noc(-c3ccc(Cl)cc3)c2C2=NCCN2)c(C)c1
GI50: 23.8 µM (inactive)

compound: COC(=O)N/N=C(\C)c1sc(-c2nc(C)c(/C(C)=N/NC(=O)OC)s2)nc1C
GI50: > 100 µM (inactive)

Requested field: GI50. Item: COc1ccccc1/C=C1\CCC(CNc2ccc(Cl)cc2)C1=O (stereo not drawn) 14 µM (inactive)

Consider next the compound C=CCOC(=O)CCCCCCCCCCCCCCCOC(=O)C1=C(CCC[C@@H](C)O[Si](C)(C)C(C)(C)C)NC(=O)N2[C@H](CC3(CC/C=C\[C@H](CC)O[Si](C(C)C)(C(C)C)C(C)C)OCCO3)CC[C@H]12 in the same way. > 100 µM (inactive)

Another compound to check: C=C(Cl)[C@@](Cl)(CBr)CC[C@@H](Br)C(C)(C)Cl 26.2 µM (inactive)

// repeat for CC(C)Cc1ccc(C(C)/C=C2\CCC(CN3CCOCC3)C2=O)cc1 (stereo not drawn) and report 20.3 µM (inactive)

Then this compound: Cc1cc(/N=N/c2ccc(/N=N/c3c(O)c(S(=O)(=O)O)cc4cc(S(=O)(=O)O)ccc34)cc2C)ccc1/N=N/c1ccc2cc(S(=O)(=O)O)cc(S(=O)(=O)O)c2c1 > 50.2 µM (inactive)

Note, next up: O=C1CNc2cc(N3CCN(c4cccc(C(F)(F)F)c4)CC3)ccc2N1 19.6 µM (inactive)

----------
System: SNB-78
experiment-description: NCI tumour cell line growth inhibition, 48 h
Active and inactive are the calls of the source. No stated cut-off is given here; in the data, active = GI50 up to about 1.1 µM and inactive = higher.
quantity-measured: GI50

// solved cases for GI50 follow
compound: COC(=O)N/N=C(\C)c1sc(-c2nc(C)c(/C(C)=N/NC(=O)OC)s2)nc1C
GI50: 62.7 µM (inactive)
//
compound: OCCOc1ccc(-c2cc(-c3ccccn3)nc(-c3ccccn3)c2)cc1
GI50: 2.83 µM (inactive)

Given the entry C=C1CCC2C(C)(CO)C(O)CCC2(C)C1CC(O)/C(=C/CO)C(=O)O (stereo not drawn) , report its measured GI50. > 100 µM (inactive)

----------
Test system: UACC-257
experiment-description: NCI tumour cell line growth inhibition, 48 h
Calls of active or inactive are those of the source. No stated cut-off is given here; in the data, active = GI50 up to about 1.1 µM and inactive = higher.
Hello, when you answer, please use one of the following outcomes: active, inactive

Answered examples (10):
compound: [N-]=[N+]=CC(=O)C1CCCN1C(=O)c1ccccc1 (stereo unspecified)
experimental-system: UACC-257
assigned-category: inactive
//
compound: C(=N\c1cnc2ccccc2c1)/c1ccc2ccccc2n1
experimental-system: UACC-257
assigned-category: inactive
//
compound: CCS(=O)(=O)Nc1ccc(Nc2c3ccccc3nc3ccccc23)c(OC)c1
experimental-system: UACC-257
assigned-category: inactive
//
compound: CCC(=O)/C(=C\I)c1ccccc1
experimental-system: UACC-257
assigned-category: inactive
//
compound: CC1OC(OC2C[C@](O)(C(=O)CBr)Cc3c(O)c4c(c(O)c32)C(=O)c2ccccc2C4=O)C(F)C(O)C1O (stereo partly specified)
experimental-system: UACC-257
assigned-category: inactive
//
compound: O=c1cccc(C2CC(CO)C3CCCCN3C2)[nH]1 (stereo unspecified)
experimental-system: UACC-257
assigned-category: inactive
//
compound: O=C(C#CP(=O)(O)c1ccccc1)c1ccccc1
experimental-system: UACC-257
assigned-category: inactive
//
compound: ClCCN(CC#CCCCC#CCN(CCCl)CCCl)CCCl
experimental-system: UACC-257
assigned-category: inactive
//
compound: [N-]=[N+]=Nc1c([N+](=O)[O-])c(Cl)nc2ccccc12
experimental-system: UACC-257
assigned-category: inactive
//
compound: OCCOc1ccc(-c2cc(-c3ccccn3)nc(-c3ccccn3)c2)cc1
experimental-system: UACC-257
assigned-category: active

# evaluate next
// param item: O=C1CNc2cc(N3CCN(c4cccc(C(F)(F)F)c4)CC3)ccc2N1 ; yields the recorded call inactive
